Test system cholinesterase (Rattus norvegicus, UniProt P37136), IC50 listed for each of the compounds.
Where a name gives a salt, the structure may show the parent alone.
Respond numerically; units are µM and should not be typed.

Supply recorded IC50 for CCN(CCCCCC1Cc2cc(OC)c(OC)cc2C1O)Cc1ccccc1OC (stereo not shown) here.
0.16

Supply recorded IC50 for CCN(CCCC1Cc2cc(OC)c(OC)cc2C1=O)Cc1cccc(O)c1 (stereo not shown) here.
0.21

Supply recorded IC50 for CCN(CCCCC1Cc2cc(N3CCCC3)ccc2C1=O)Cc1ccccc1OC (stereo not shown) [Example 8, fumarate] here.
0.081

Supply recorded IC50 for CCN(CCCCC1Cc2cc3c(cc2C1=O)OCO3)Cc1ccccc1OC (stereo not shown) here.
0.17

Supply recorded IC50 for CCN(CCCCC1Cc2cc(OC)ccc2C1=O)Cc1ccccc1OC (stereo not shown) here.
0.11

Supply recorded IC50 for CCN(CCCCCC1Cc2cc(OC)c(OC)cc2C1=O)Cc1ccccc1 (stereo not shown) here.
0.12

Supply recorded IC50 for CCN(CCCCCCC1Cc2cc(OC)c(OC)cc2C1=O)Cc1ccccc1OC (stereo not shown) here.
0.1

Supply recorded IC50 for CCN(CCCCC1Cc2cc(OC)c(OC)cc2C1=O)Cc1cccc(O)c1 (stereo not shown) here.
0.63

Supply recorded IC50 for CCN(CCCCC1Cc2cc(OC)c(OC)cc2C1=O)Cc1cccc(OC)c1 (stereo not shown) here.
0.11

Supply recorded IC50 for CCN(CCCC1Cc2cc(OC)c(OC)cc2C1=O)Cc1ccccc1OC (stereo not shown) [Example 3-6] here.
0.014

Supply recorded IC50 for CCN(CCCCCC1CCc2cc(OC)ccc2C1=O)Cc1ccccc1OC (stereo not shown) here.
0.13

Supply recorded IC50 for CCN(CCCCC1Cc2cc(OC)c(OC)cc2C1=O)Cc1ccccc1OC (stereo not shown) [Example 3-2] here.
0.02

Supply recorded IC50 for CCN(CCCCC1Cc2cc(OC)c(OC)cc2C1=O)Cc1ccccc1 (stereo not shown) here.
0.076

Supply recorded IC50 for CCN(CCC1Cc2cc(OC)c(OC)cc2C1=O)Cc1ccccc1OC (stereo not shown) here.
0.68

Supply recorded IC50 for CCN(CCCCCC1=Cc2cc(OC)c(OC)cc2C1)Cc1ccccc1OC [Example 5, hydrochloride] here.
0.6

Supply recorded IC50 for CCN(CCCCC1Cc2cc(N3CCCC3)ccc2C1=O)Cc1ccccc1 (stereo not shown) [Example 7, fumarate] here.
0.143

Supply recorded IC50 for CCN(CCCCC1Cc2cc(OC)c(OC)c(OC)c2C1=O)Cc1ccccc1OC (stereo not shown) here.
0.09

Supply recorded IC50 for CCN(CCCCC1Cc2cc(OC)c(OC)cc2C1=O)Cc1ccccc1OC (stereo not shown) [Example 3-7] here.
0.027

Supply recorded IC50 for CCN(CCCC1Cc2cc(OC)c(OC)cc2C1=O)Cc1ccccc1OC (stereo not shown) [Example 3-4] here.
0.011
